# studySystem: UniProtKB P42345
# Sequence (P42345 1360-2549 limits assumed): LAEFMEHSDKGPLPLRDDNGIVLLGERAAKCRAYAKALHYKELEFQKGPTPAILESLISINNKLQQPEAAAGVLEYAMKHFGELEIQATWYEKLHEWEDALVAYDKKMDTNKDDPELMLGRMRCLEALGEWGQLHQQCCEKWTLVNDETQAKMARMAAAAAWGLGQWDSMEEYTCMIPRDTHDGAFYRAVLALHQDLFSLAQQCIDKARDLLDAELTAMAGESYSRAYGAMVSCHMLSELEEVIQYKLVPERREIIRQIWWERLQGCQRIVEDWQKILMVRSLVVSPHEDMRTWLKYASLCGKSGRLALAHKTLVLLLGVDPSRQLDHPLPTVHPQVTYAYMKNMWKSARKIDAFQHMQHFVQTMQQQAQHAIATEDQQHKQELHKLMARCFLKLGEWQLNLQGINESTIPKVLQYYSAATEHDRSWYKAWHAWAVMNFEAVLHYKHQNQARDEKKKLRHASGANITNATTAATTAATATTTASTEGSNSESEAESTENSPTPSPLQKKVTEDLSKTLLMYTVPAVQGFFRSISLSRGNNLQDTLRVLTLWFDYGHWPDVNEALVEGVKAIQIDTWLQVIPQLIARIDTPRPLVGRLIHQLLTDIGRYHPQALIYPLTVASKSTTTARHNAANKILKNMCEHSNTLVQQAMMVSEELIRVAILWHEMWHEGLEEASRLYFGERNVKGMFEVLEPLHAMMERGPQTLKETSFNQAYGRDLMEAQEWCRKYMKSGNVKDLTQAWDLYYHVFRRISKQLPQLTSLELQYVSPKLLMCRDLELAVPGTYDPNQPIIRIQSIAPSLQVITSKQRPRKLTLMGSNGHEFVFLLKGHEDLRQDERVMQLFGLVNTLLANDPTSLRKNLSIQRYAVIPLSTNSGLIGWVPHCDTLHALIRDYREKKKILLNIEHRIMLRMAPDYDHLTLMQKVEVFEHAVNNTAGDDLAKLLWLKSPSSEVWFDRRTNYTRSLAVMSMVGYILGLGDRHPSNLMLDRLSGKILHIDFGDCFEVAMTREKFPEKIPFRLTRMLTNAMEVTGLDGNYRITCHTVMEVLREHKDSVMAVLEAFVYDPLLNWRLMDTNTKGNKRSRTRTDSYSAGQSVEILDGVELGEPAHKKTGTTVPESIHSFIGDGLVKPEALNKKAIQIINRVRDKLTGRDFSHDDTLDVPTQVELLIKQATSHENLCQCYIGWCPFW
# experimentSummary: Inhibition of mTOR-induced p-4E-BP1 phosphorylation (TR-FRET mTOR Activity Kit; Invitrogen)
# particulars: 400 nM GFP-4E-BP1 substrate, ~150 ng/mL mTOR, one hour at room temperature
pIC50: −log10 of the molar value.
Classify by measured pIC50: True if it is equal to or exceeds 6, False if it is smaller.

Request: Please indicate if the recorded pIC50 for CCNc1ccc(-c2nn(-c3ccccc3C)c3c2CCCc2nc(NC(=O)CCCN(C)C)sc2-3)cn1 meets or exceeds 6.
Result: True

Request: Please indicate if the recorded pIC50 for CCCn1nc(-c2ccc(C)nc2)c2c1-c1sc(NC(C)=O)nc1CCC2 meets or exceeds 6.
Result: True

Request: Could you please find out whether CC(=O)Nc1nc2c(s1)-c1c(c(-c3ccc(N)nc3)nn1-c1ccccc1C)CCC2 has pIC50 that meets 6 or exceeds it?
Result: True

Request: Is it the case that CNc1ccc(-c2nn(-c3ccccc3F)c3c2CCCc2nc(NC(=O)N(C)C)sc2-3)cn1 has pIC50 reaching or exceeding 6?
Result: True

Request: Decide: is the reported value of pIC50 for CCNc1ccc(-c2nn(-c3ccccc3C)c3c2CCCc2nc(NC(=O)NC)sc2-3)cn1 equal to or greater than 6?
Result: True

Request: Hello, I need to know if CNc1ccc(-c2nn(C3CCCOC3)c3c2CCCc2nc(NC(C)=O)sc2-3)cn1 (stereo not shown) has measured pIC50 not below 6. Thanks!
Result: True

Request: Textbook exercise: given the entry CC(=O)Nc1nc2c(s1)-c1c(c(C(=O)NCCCO)nn1C(C)C)CCC2 , state whether its pIC50 is greater than or equal to 6.
Result: False
